experiment: Tissue distribution of 18F imaging agents in rats; format: in vivo, Male Sprague Dawley rats; conditions: rat, iv tail vein ~15 μCi, 15 min post injection, ± SEM
observationType: Spleen, imaging agent distribution at 15 min (% ID/g)

compound="CC(C)n1ncc(OCc2ccc(COCCF)cc2)c(Cl)c1=O [Example 67H]" unit="% ID/g" recordedvalue=0.34
compound="CC(OCCF)c1ccc(COc2cnn(C(C)(C)C)c(=O)c2Cl)cc1 (stereo not drawn) [Example 67G]" unit="% ID/g" recordedvalue=0.32
compound="CC(C)(C)n1ncc(OCc2cccc(COCCF)c2)c(Cl)c1=O [Example 67A]" unit="% ID/g" recordedvalue=0.05
compound="CC(C)(C)n1ncc(OCc2ccc(-c3cnc(F)nc3)cc2)c(Cl)c1=O [Example 67L]" unit="% ID/g" recordedvalue=0.18
compound="CC(C)(C)n1ncc(OCc2cccc(OCCF)c2)c(Cl)c1=O [Example 67F]" unit="% ID/g" recordedvalue=0.28
compound="CC(C)(C)n1ncc(OCc2ccc(OCCOCCF)cc2)c(Cl)c1=O [Example 67B]" unit="% ID/g" recordedvalue=0.41
compound="[2H]C([2H])(OCCF)c1ccc(COc2cnn(C(C)(C)C)c(=O)c2Cl)cc1 [Example 67E]" unit="% ID/g" recordedvalue=0.36
compound="Cc1c(OCc2ccc(COCCF)cc2)cnn(C(C)(C)C)c1=O [Example 67I]" unit="% ID/g" recordedvalue=0.18
compound="CC(C)(C)n1ncc(OCc2ccc([Si](F)(C(C)(C)C)C(C)(C)C)cc2)c(Cl)c1=O [Example 67N]" unit="% ID/g" recordedvalue=3.47

Source: patent US9713651B2
